The values you see were collected from ChEMBL document CHEMBL2046427.

# System: HepG2
# ASSAY_DETAILS: Cytotoxicity against human HepG2 cells after 48 hrs by MTT assay
# Type: functional, cell-based
# CONDITIONS_USED: HepG2, 48 h
QUANTITY_KIND: pIC50
Note on units: pIC50 is unitless, being -log10 of a concentration expressed in mol/L.

*Q* Sample `NCCCNCCCNCCCN1C(=O)c2ccc3c4c(ccc(c24)C1=O)C(=O)N(CCCNCCCNCCCN)C3=O` — what was its pIC50?
*A* 4.31

*Q* Try this compound too: `CN(C)CCN1C(=O)c2cccc3c(-c4ccccc4)ccc(c23)C1=O`
*A* 4.43

*Q* Repeat with `NCCCNCCCN1C(=O)c2ccc3c4c(ccc(c24)C1=O)C(=O)N(CCCNCCCN)C3=O`
*A* 5.55

*Q* Repeat with `NCCCNCCCCNCCCN1C(=O)c2cccc3c(-c4ccccc4)ccc(c23)C1=O`
*A* 4.80

*Q* What do we get for `NCCCCNCCCCNCCCCN1C(=O)c2cccc3c(-c4ccccc4)ccc(c23)C1=O` ?
*A* 4.49

*Q* Here is the next compound: `Cl.NCCCNCCCCNCCCN1C(=O)c2ccc3c4c(ccc(c24)C1=O)C(=O)N(CCCNCCCCNCCCN)C3=O`
*A* 5.91

*Q* Next up: `NCCCCNCCCCN1C(=O)c2cccc3c(-c4ccccc4)ccc(c23)C1=O`
*A* 4.77

====

# Test system: HepG2
# ASSAY_DETAILS: Cytotoxicity against human HepG2 cells after 48 hrs by MTT assay
# Type: functional, cell-based
# CONDITIONS_USED: HepG2, 48 h
So I've got a bunch of molecules here, and I need their pIC50 values.
On this scale, pIC50 is minus log10 of a concentration expressed in M (mol/L).

*Q* Observed pIC50 on HepG2 for CN(C)CCN1C(=O)c2cccc3cc(N)cc(c23)C1=O [AMONAFIDE] , please.
*A* 4.44

*Q* Item: `NCCCCNCCCCN1C(=O)c2ccc3c4c(ccc(c24)C1=O)C(=O)N(CCCCNCCCCN)C3=O`
*A* 4.36

*Q* `NCCCNCCCNCCCN1C(=O)c2cccc3c(-c4ccccc4)ccc(c23)C1=O` ?
*A* 4.81

*Q* Can you check `NCCCNCCCCN1C(=O)c2ccc3c4c(ccc(c24)C1=O)C(=O)N(CCCCNCCCN)C3=O` next?
*A* 4.48

====

Please go through the items and note down their IC50.
# System: HepG2
# ASSAY_DETAILS: Cytotoxicity against human HepG2 cells after 48 hrs by MTT assay
# Type: functional, cell-based
# CONDITIONS_USED: HepG2, 48 h

*Q* # get_value(readout='IC50', item= `NCCCCNCCCCNCCCCN1C(=O)c2ccc(-c3ccc4c(c3)C(=O)N(CCCCNCCCCNCCCCN)C4=O)cc2C1=O` )
*A* > 50 µM

*Q* Now consider `NCCCNCCCCNCCCN1C(=O)c2ccc(-c3ccc4c(c3)C(=O)N(CCCNCCCCNCCCN)C4=O)cc2C1=O` and answer again.
*A* > 50 µM

*Q* Similarly, `NCCCCNCCCCNCCCCN1C(=O)c2ccc3c4c(ccc(c24)C1=O)C(=O)N(CCCCNCCCCNCCCCN)C3=O` ?
*A* > 50 µM
